assay: Plasma pharmacokinetics after single intravenous and oral dose; assay type: in vivo, male BALB/c mice; conditions: male, BALB/c, mouse, plasma, iv, 1 mg/kg, IV 1 mg/kg, 0.5 hr; read-out: Plasma concentration, individual animals
outcomeMeasure: concentration at 0.5 hr (ng/mL)
Number only, in ng/mL; omit the unit.

Task item: Which concentration at 0.5 hr reading was recorded for the compound Cn1c(=O)c2c(ncn2CC(=O)Nc2ccc(-c3ccccc3O)nn2)n(C)c1=O ?
Reply: 952

---

experiment: Plasma pharmacokinetics after single intravenous and oral dose; type: in vivo, male BALB/c mice; conditions: male, BALB/c, mouse, plasma, po, 5 mg/kg, PO 5 mg/kg, 0.25 hr; read-out: Plasma concentration, Mean
outcomeMeasure: concentration at 0.25 hr (ng/mL)
Number only, in ng/mL; omit the unit.

Task item: Which concentration at 0.25 hr reading was recorded for the molecule Cn1c(=O)c2c(ncn2CC(=O)Nc2ccc(-c3ccccc3O)nn2)n(C)c1=O [Compound 1] ?
Reply: 1860
